All figures here come from PubChem BioAssay AID1159580.

Below, each entry is listed with its recorded normalized growth.
- Test summary: chemical genetic growth profiling, strain panel (AID 1159580);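 further: tested at 20 µM; growth read once vehicle control cultures reached saturation at 30 °C; 1 = growth at the plate median or of vehicle wells; lower values mean less growth of the strain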
- Assay setup: S. cerevisiae deletion strains, growth OD, locus YLL041C, strain sdh2, active compounds read low
The campaign covered roughly 5,500 compounds. About 2,000 (36%) were called active. Inconclusive results (about 18%) are left out. The list shows a part of the results.
Measurement label: normalized growth

[[record]]
compound = "O=C(O)CCCCCCCC(=O)O"
measured_number = 0.993

[[record]]
compound = "COP(=S)(OC)Oc1ccc([N+](=O)[O-])cc1"
measured_number = 1

[[record]]
compound = "NC1(C(=O)O)CCCC1"
measured_number = 1.02

[[record]]
compound = "Oc1c(Cl)cc(Cl)c(Cl)c1Cc1c(O)c(Cl)cc(Cl)c1Cl"
measured_number = 0.0572

[[record]]
compound = "CC(C)/C(O)=C1/C(=O)O[C@@H](c2ccoc2)[C@]2(C)C(O)[C@@H](O)[C@@]34OC5(C)OC67CC(C)(C(O)[C@]6(O)[C@@H](O)[C@]3(O5)C12)[C@H](CC(=O)O)[C@]74C (stereo partly drawn)"
measured_number = 0.985

[[record]]
compound = "CC[C@@H]1OC(=O)C[C@@H](O)[C@H](C)[C@@H](O[C@@H]2O[C@H](C)[C@@H](O)[C@H](N(C)C)[C@H]2O)[C@@H](CCN2C[C@H](C)C[C@H](C)C2)C[C@@H](C)C(=O)/C=C/C(C)=C\\[C@@H]1CO[C@@H]1O[C@H](C)[C@@H](O)[C@@H](OC)[C@H]1OC"
measured_number = 1.01

[[record]]
compound = "Clc1ccc(C(Cn2ccnc2)OCc2ccsc2Cl)c(Cl)c1 (stereo not drawn)"
measured_number = 0.0592

[[record]]
compound = "CC1OC(O[C@H]2/C=C/C=C/C=C/C=C/C=C/C=C/C=C/[C@H](C)[C@@H](O)[C@@H](C)[C@H](C)OC(=O)CC(O)CC(O)CCC(O)C(O)CC(O)C[C@]3(O)C[C@H](O)C(C(=O)O)C(C2)O3)C(O)[C@H](N)C1O (stereo partly drawn)"
measured_number = 0.0791


###

- Test summary: chemical genetic growth profiling, strain panel (AID 1159580);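 further: tested at 20 µM; growth read once vehicle control cultures reached saturation at 30 °C; 1 = growth at the plate median or of vehicle wells; lower values mean less growth of the strain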
- Assay setup: S. cerevisiae deletion strains, growth OD, locus YLR342W, strain FKS1 (second series)
About 2,000 (36%) of roughly 5,500 compounds were called active. Not shown: some 18% with an inconclusive outcome. Cut-off read from the data, not from the text of the source: active = normalized growth mostly below about 0.91 (no sharp cut-off); inconclusive = no clear call, values can overlap the other calls; inactive = mostly above about 0.92. The list shows a part of the results.
Labels: active, inactive

[[record]]
compound = "COc1cc(C)c2c(=O)cc(-c3ccccc3)oc2c1"
class_assignment = "inactive"

[[record]]
compound = "NCCCCNCCCN"
class_assignment = "inactive"

[[record]]
compound = "COC[C@]12CN(C=O)C3[C@@H]4[C@H](OC)C1[C@]3(C1CC3(O)C(OC)C(O)C4(OC(C)=O)C1C3OC(=O)c1ccccc1)[C@@H](OC)C[C@H]2O (some centres undefined)"
class_assignment = "inactive"

[[record]]
compound = "CC1OC(O[C@H]2/C=C/C=C/C=C/C=C/C=C/C=C/C=C/[C@H](C)[C@@H](O)[C@@H](C)[C@H](C)OC(=O)CC(O)CC(O)CCC(O)C(O)CC(O)C[C@]3(O)C[C@H](O)C(C(=O)O)C(C2)O3)C(O)[C@H](N)C1O (some centres undefined)"
class_assignment = "inactive"

[[record]]
compound = "CC(=O)OCC(=O)[C@@]1(O)CCC2C3CCC4=CC(=O)C=CC4(C)C3[C@@H](O)C[C@@]21C (some centres undefined)"
class_assignment = "inactive"

[[record]]
compound = "O=c1[nH]c(=O)n(C2C[C@H](O)[C@@H](CO)O2)cc1C(F)(F)F (some centres undefined)"
class_assignment = "inactive"

[[record]]
compound = "COc1cc(OC)c2c(=O)cc(-c3ccccc3)oc2c1"
class_assignment = "active"

[[record]]
compound = "O=NN(CCCl)C(=O)NCCCl"
class_assignment = "inactive"

[[record]]
compound = "NC(=O)NC1NC(=O)NC1=O (centres undefined)"
class_assignment = "inactive"

